Cited source for all entries: patent US5229381A

Measured kinact/KI values are reported for all entries that follow.
Target: human polymorphonuclear leukocyte elastase (Homo sapiens, UniProt P08246)
Construct: Crude extract of human polymorphonuclear leukocytes (PMN) containing elastase activity; endogenous in cells; host or cells: human polymorphonuclear leukocytes (crude extract)
Sequence (P08246 30-247 limits assumed): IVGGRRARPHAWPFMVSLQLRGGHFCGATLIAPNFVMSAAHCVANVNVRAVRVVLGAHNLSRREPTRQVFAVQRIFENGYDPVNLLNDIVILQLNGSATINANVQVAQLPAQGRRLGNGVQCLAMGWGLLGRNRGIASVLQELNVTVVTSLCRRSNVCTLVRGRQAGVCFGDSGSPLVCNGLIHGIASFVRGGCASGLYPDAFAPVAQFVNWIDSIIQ
Assay: Inhibition of human polymorphonuclear leukocyte (granulocyte) elastase via hydrolysis of Boc-AAPAN or Boc-AAPVN
Assay type: biochemical
Conditions: pH 7.5, Table III, (per mole per second); read-out: kobs/I, second order rate constant of inactivation of the enzyme
test readout: kinact/KI (M⁻¹ s⁻¹)

INSERT INTO assay_data (compound, reported_measurement) VALUES
  ('CCC1(CC)C(=O)N(C(=O)NCc2cccc(C)c2)C1Oc1ccc(C(=O)O)cc1 (stereo not shown)', 6930),
  ('CCC(NC(=O)N1C(=O)C(CC)(CC)C1OCC(=O)O)c1ccccc1 (stereo not shown) [Table III: OCH2COOH; CH(Et)Ph]', 5710),
  ('CCC1(CC)C(=O)N(C(=O)NCC2CCC3CCCCC3C2)C1Oc1ccc(C(=O)O)cc1 (stereo not shown) [Table III: O-(4-COOHPh); drawing 41]', 4160),
  ('CCC1(CC)C(=O)N(C(=O)NCc2ccccc2)C1n1ccccc1=O (stereo not shown) [Table III: [2H-1-pyridonyl]; CH2 Ph]', 357);
